These entries and their values trace back to the RNAGym collection of RNA variant scans (doi:10.7554/elife.80360).

B1: CPEB3 Ribozyme (parent)
chain: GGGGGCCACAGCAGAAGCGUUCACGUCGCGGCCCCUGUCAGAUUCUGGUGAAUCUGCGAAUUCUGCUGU

# Variants of: B1
# test: self-cleavage, relative activity (ratio to wild type); higher = more cleavage; co-transcriptional
property_label: self-cleavage

variant_spec | property_label | assay_value
U55G G56A | self-cleavage | 0.963
G14A U46G | self-cleavage | 0.844
A13U A23G | self-cleavage | 0.618
A42G U61G | self-cleavage | 0.359
G11C A40U | self-cleavage | 0.26
U46A C66G | self-cleavage | 0.961
A13U C33A | self-cleavage | 0.759
C24G G50C | self-cleavage | 0.347
A15C U46A | self-cleavage | 0.93
U53C G65C | self-cleavage | 0.407
G5U G14A | self-cleavage | 0.078
U20C A42G | self-cleavage | 0.161
G4C G14A | self-cleavage | 0.223
G14C G37A | self-cleavage | 0.151
G14C C33U | self-cleavage | 0.636
A23C U43G | self-cleavage | 0.82
C34G G41A | self-cleavage | 0.318
C45U G68U | self-cleavage | 1.01
C35U U61A | self-cleavage | 0.596
C34A G65A | self-cleavage | 0.617
U26A G56C | self-cleavage | 0.357
C7U U69C | self-cleavage | 1.06
A15G U21G | self-cleavage | 0.578
G17A G25A | self-cleavage | 0.201
A59U U61C | self-cleavage | 0.358
G30C C63U | self-cleavage | 0.645
